# tgt: Recombinant Human NF-kappaB-Inducing Kinase (NIK/MAP3K14) (Homo sapiens, UniProt Q99558)
# Sequence (Q99558 whole entry): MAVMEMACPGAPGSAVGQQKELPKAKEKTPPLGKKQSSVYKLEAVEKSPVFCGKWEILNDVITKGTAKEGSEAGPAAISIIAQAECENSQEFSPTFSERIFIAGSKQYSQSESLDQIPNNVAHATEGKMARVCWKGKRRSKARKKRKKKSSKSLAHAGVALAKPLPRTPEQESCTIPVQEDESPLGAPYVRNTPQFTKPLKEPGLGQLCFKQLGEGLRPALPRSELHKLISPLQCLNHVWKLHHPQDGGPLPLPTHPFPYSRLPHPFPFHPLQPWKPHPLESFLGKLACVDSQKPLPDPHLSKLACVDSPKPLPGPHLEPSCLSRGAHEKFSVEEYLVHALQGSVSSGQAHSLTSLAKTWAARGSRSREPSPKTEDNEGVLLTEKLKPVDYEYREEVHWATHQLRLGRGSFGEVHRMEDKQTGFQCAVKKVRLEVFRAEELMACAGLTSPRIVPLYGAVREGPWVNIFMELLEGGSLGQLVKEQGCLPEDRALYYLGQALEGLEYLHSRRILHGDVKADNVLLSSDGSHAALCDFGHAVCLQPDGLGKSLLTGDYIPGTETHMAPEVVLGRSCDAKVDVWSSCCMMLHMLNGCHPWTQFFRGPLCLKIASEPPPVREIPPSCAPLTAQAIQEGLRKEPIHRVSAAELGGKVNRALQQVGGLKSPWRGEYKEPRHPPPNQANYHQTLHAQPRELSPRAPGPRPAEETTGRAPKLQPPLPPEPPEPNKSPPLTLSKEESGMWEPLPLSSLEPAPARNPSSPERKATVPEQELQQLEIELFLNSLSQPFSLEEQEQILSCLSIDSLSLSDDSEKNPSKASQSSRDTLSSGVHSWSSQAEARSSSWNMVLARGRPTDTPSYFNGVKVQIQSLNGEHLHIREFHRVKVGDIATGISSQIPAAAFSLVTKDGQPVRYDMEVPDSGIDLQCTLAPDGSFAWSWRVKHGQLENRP
# assayNotes: Inhibition of auto-phosphorylation of recombinant human NIK/MAP3K14 activity (AlphaScreen)
# experimentalConditions: 5 μM ATP, 1 nM NIK, average if tested more than once
pIC50: −log10 of the molar value.
Measured pIC50, listed per entry for reference.

# annotated cases, reported pIC50 shown
Lookup result for CN1CC[C@@](O)(c2cccc(-c3nc(-c4ccnc(Nc5cnn6c5NCCC6)n4)cs3)c2)C1=O [Example 54] ; measured pIC50: > 7.00

Lookup result for CN1CC[C@@](O)(c2cccc(-c3nc(-c4ccnc(Nc5cn(C)nn5)n4)cs3)c2)C1=O [Example 283] ; measured pIC50: > 7.00

Lookup result for CN1CC[C@@](O)(c2cccc(-c3nc(-c4ccnc(NC5CCC5)n4)cs3)c2)C1=O [Example 131] ; measured pIC50: > 7.00

Lookup result for Cc1nnc(Nc2nccc(-c3csc(-c4cccc([C@]5(O)CCN(C)C5=O)c4)n3)n2)o1 [Example 175] ; measured pIC50: 6.30 to 7.00

Lookup result for Cc1ncc(Nc2nccc(-c3csc(-c4cccc([C@]5(O)CCN(C)C5=O)c4)n3)n2)s1 [Example 249] ; measured pIC50: < 6.30

Lookup result for CN1CC[C@@](O)(c2cccc(-c3nc(-c4ccnc(NC5COC5)n4)cs3)c2)C1=O [Example 230] ; measured pIC50: > 7.00

More entries:
Lookup result for COCCOc1nn(CC(F)F)cc1Nc1nccc(-c2csc(-c3cccc([C@]4(O)CCN(C)C4=O)c3)n2)n1 [Example 11] ; measured pIC50: > 7.00
